Reference source for all entries: patent US8871753B2

Listing of entries alongside the reported ALK % of inhibition at a concentration of 500 nM or 1 mM.
Tested System: Recombinant Human Anaplastic Lymphoma Kinase (Homo sapiens)
Construct: purchased Invitrogen, Carlsbad, Calif
Test Protocol: ALK HTRF kinase assay
Assay type: biochemical
Condition Label: percentage inhibition of the example compound at a concentration of 500 nM or 1 mM (not specified which)
Structures can show the parent of a compound that is named as a salt.
Numbers only; they are read as %.

Sample answers from the record:
O=C(NCCNS(=O)(=O)c1ccccc1)Nc1ccc2cc1CCc1cccc(c1)Nc1ncc(Cl)c(n1)N2 [Example B329, trifluoroacetate]; 20
CCCS(=O)(=O)NCCNC(=O)Nc1ccc2cc1CCc1cccc(c1)Nc1ncc(Cl)c(n1)N2 [Example B326, trifluoroacetate]; 19
O=C(Nc1ccc2cc1CCc1cncc(c1)Nc1ncc(Cl)c(n1)N2)N1CCC(c2ccccc2)C1 (stereo not shown) [Example B312, bis(trifluoroacetate)]; 40
CC(=O)N1CCC(CN(C)Cc2ccc3cc2CCc2cncc(c2)Nc2ncc(Cl)c(n2)N3)CC1 [Example B346, tris(trifluoroacetate)]; 38
CN(Cc1ccc2cc1CCc1cncc(c1)Nc1ncc(Cl)c(n1)N2)CC1CCN(C(=O)Nc2cccnc2)CC1 [Example B348, (trifluoroacetate)]; 47

(Q) Give reported ALK % of inhibition at a concentration of 500 nM or 1 mM for Cn1ccc(S(=O)(=O)NCCNC(=O)Nc2ccc3cc2CCc2cccc(c2)Nc2ncc(Cl)c(n2)N3)n1 [Example B332, trifluoroacetate] (Recombinant Human Anaplastic Lymphoma Kinase (Homo sapiens))
(A) 23

(Q) Give reported ALK % of inhibition at a concentration of 500 nM or 1 mM for CN(Cc1ccc2cc1CCc1cncc(c1)Nc1ncc(Cl)c(n1)N2)CC1CCNCC1 [Example B339] (Recombinant Human Anaplastic Lymphoma Kinase (Homo sapiens))
(A) 41

---

Tested System: Recombinant Human Anaplastic Lymphoma Kinase (Homo sapiens, UniProt Q9UM73)
Construct: purchased Invitrogen, Carlsbad, Calif
Sequence (Q9UM73 19-1620): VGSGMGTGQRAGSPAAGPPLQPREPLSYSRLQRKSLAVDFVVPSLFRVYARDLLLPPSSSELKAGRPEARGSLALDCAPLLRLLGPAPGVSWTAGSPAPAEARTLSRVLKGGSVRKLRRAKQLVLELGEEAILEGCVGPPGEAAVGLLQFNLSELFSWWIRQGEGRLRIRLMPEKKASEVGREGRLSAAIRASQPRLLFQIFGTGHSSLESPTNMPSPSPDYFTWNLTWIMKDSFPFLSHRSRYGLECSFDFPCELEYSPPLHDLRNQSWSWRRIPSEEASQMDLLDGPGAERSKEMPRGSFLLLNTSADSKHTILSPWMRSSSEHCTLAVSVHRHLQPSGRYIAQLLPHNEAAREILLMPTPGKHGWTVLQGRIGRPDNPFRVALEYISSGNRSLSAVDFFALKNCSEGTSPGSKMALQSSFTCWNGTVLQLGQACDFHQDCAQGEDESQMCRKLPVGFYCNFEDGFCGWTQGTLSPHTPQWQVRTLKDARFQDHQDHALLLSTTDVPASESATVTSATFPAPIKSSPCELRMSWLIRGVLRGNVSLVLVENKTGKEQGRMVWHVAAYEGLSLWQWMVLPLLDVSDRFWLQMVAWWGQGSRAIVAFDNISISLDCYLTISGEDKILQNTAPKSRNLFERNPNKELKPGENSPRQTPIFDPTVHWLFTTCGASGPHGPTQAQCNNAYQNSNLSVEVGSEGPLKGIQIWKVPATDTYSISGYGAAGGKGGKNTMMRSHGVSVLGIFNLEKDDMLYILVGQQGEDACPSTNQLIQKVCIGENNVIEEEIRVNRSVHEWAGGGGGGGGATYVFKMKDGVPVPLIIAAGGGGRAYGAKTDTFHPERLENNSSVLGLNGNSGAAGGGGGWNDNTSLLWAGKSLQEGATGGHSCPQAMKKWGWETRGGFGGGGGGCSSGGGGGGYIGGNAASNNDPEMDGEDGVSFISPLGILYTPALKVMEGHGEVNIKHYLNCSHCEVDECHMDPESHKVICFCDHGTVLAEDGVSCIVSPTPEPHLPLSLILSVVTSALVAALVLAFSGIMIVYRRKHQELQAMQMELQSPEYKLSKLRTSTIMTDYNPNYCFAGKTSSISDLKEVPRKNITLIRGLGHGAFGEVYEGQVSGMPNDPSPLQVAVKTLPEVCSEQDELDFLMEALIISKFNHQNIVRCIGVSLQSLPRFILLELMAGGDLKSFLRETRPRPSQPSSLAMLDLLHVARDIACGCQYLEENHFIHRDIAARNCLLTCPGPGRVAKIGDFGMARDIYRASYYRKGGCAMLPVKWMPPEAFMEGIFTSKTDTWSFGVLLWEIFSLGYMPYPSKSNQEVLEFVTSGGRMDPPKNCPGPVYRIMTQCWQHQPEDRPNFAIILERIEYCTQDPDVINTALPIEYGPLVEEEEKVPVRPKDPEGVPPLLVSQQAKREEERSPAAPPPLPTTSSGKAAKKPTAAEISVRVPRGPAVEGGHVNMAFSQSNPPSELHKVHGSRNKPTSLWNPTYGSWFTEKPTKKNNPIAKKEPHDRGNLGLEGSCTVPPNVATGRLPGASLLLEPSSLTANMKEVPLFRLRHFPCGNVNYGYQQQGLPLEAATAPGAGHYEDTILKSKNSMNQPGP
Test Protocol: ALK HTRF kinase assay
Assay type: biochemical
Condition Label: compound at 500 nM or 1 mM; 90 μM ATP
Structures can show the parent of a compound that is named as a salt.
Listing of entries alongside the reported ALK % of inhibition at a concentration of 500 nM or 1 mM.
Numbers only; they are read as %.

O=C(CC1CCNCC1)Nc1ccc2cc1CCc1cncc(c1)Nc1ncc(Cl)c(n1)N2 [Example A71, tris(trifluoroacetate)]; 26
C[N+]1(C)CCC(CC(=O)Nc2ccc3cc2CCc2cccc(c2)Nc2ncc(Cl)c(n2)N3)CC1; 23
N#Cc1cccc(C(=O)N2CCC(CC(=O)Nc3ccc4cc3CCc3cccc(c3)Nc3ncc(Cl)c(n3)N4)CC2)c1 [Example A187, trifluoroacetate]; 37

(Q) Given the compound N#CCC(=O)Nc1ccc2cc1CCc1cccc(c1)Nc1ncc(Cl)c(n1)N2 [Example A65, trifluoroacetate] , write its reported ALK % of inhibition at a concentration of 500 nM or 1 mM.
(A) 39

---

Tested System: TYK2 (Homo sapiens)
Sequence (P29597 whole entry): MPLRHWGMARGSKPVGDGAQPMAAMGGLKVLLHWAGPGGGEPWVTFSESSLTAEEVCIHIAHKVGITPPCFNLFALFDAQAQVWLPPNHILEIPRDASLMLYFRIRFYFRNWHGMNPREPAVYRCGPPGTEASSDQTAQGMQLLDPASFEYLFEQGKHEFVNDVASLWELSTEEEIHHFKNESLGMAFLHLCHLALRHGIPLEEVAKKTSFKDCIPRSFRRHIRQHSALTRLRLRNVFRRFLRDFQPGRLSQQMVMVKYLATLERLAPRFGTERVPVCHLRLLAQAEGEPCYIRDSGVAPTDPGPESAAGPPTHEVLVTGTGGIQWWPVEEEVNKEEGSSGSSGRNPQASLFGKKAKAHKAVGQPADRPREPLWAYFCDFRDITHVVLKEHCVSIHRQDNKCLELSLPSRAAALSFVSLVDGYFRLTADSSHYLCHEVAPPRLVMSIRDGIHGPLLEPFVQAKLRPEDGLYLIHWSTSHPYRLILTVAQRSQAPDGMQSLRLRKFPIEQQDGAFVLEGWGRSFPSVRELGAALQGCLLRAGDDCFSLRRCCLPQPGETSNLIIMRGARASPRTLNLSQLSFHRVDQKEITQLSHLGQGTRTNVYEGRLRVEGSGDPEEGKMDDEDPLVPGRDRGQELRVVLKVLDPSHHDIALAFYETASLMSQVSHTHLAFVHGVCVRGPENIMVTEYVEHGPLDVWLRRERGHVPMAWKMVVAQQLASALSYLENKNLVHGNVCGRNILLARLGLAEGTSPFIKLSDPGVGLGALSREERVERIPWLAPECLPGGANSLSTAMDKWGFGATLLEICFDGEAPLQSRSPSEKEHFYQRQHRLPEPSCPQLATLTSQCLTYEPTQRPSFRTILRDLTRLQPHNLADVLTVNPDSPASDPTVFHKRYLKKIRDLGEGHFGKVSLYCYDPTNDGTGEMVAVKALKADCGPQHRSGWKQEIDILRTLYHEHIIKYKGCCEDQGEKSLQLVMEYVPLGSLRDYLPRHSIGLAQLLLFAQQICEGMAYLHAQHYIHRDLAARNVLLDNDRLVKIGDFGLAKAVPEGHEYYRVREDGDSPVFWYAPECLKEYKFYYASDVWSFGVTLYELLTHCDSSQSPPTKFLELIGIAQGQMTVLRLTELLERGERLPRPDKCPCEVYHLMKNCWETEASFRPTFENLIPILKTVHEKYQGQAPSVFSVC
Test Protocol: TYK2 kinase inhibition (Table A1)
Format: biochemical
Counter-ions that a name gives are not always drawn.
Endpoint: pIC50
Please note pIC50 is a logarithmic value: minus log10 of concentration in mol/L. Answer with that number alone.

Sample answers from the record:
O=C(CC1CCN(C(=O)c2c[nH]nn2)CC1)Nc1ccc2cc1CCc1cncc(c1)Nc1ncc(Cl)c(n1)N2 [Example A137, bis(trifluoroacetate)]; 9.00
Cc1cc(C(=O)N2CCCC(C(=O)Nc3ccc4cc3CCc3cccc(c3)Nc3ncc(Cl)c(n3)N4)C2)no1 (stereo not drawn) [Example A121, trifluoroacetate]; 7.85
Cc1nc(C)c(CC(=O)Nc2ccc3cc2CCc2cccc(c2)Nc2ncc(Cl)c(n2)N3)s1 [Example C43, trifluoroacetate]; 7.06

With those in mind, consider the next compound.
(Q) Given the compound NC(=O)COc1ccc2cc1CCc1cccc(c1)Nc1ncc(Cl)c(n1)N2 [Example A15, trifluoroacetate] , write its reported pIC50.
(A) 8.47
